Reference for the values: PubChem BioAssay (NCI)

Give growth for every item shown.
Test system: UACC-62 melanoma
Assay: NCI-60 one-dose screen, 48 h (100 = growth as untreated, 0 = no growth, -100 = all killed)
Details: 10 µM unless noted
Experimental: Growth inhibition of the UACC-62 human tumor cell line is measured as a screen for anti-cancer activity. Cells are grown in 96 well plates and exposed to the test compound for 48 hours. Compounds are tested at a single concentration, which is 10^-5 M for most compounds. The reported endpoint is percent growth (GI% or GIPRCNT), where numbers from 0 - 100% represent growth inhibition, and numbers from -100% - 0 represent cell death. For example, a value of 40 represents 60% growth inhibition. […]
This is part of a sample that, as a whole, favours compounds with a hit. Of some 83,000 tested, about 20% had one in any assay. The source made the active and inactive calls. Rule for the calls: active = growth percent below 10; inactive = the rest.

Known growth results, listed for orientation:
> print(dat)
                                   compound          observed
1  CCCCCCCCCCCCCCCCCC(=O)NCCNC(=O)CCCCCCCCCCCCCCCCC   104% (inactive)
2    CCCCCCCCCCCCCCCCOc1ccccc1NC(=O)CC(C)=O  78.7% (inactive)
3  C=CCC(OC(C)=O)c1ccc(OC)c(OC)c1 (configuration not stated)   107% (inactive)

The following compounds each have a reported value; give each one's growth.
1. CCOC(=O)c1c[nH][nH]c1=O
2. O=S(=O)(O)c1cccc2cccnc12
3. C(=C\c1ccncc1)/c1ccncc1
4. CC(=O)OCC1OC(n2cnc3c(=S)nc(N)[nH]c32)C(OC(C)=O)C1OC(C)=O (configuration not stated)
5. CC(C)=CCC[C@@H](C)[C@H]1CC[C@@]2(C)C3=C(CC[C@]12C)[C@@]1(C)CC[C@H](O)C(C)(C)[C@@H]1CC3
6. COC1C(=O)CCC2(CO2)C1(O)C1(C)OC1CCC(C)C (configuration not stated)
7. CC(=O)c1cc(O)ccc1O
8. CC(C)c1ccc(C(=O)OCCCl)cc1

["96.2% (inactive)", "109% (inactive)", "90.1% (inactive)", "65.2% (inactive)", "101% (inactive)", "70.4% (inactive)", "96.6% (inactive)", "110% (inactive)"]

The following compounds each have a reported value; give each one's growth.
1. CCN(CC)CCN1CNC(=S)NC1
2. CN1C(=O)NC(c2ccc(Cl)cc2)(c2ccc(Cl)cc2)C1=O
3. Cc1cc(NC(=O)c2ccccc2)c(Cl)cc1N
4. Nc1cccc2cccc(O)c12
5. O=C1C=Cc2ccccc2/C1=C/c1[nH]c(=O)[nH]c1O
6. CC1CCC(C)(C)c2ccccc21 (configuration not stated)

105% (inactive)
83.8% (inactive)
89.8% (inactive)
86.4% (inactive)
24% (inactive)
103% (inactive)

The following compounds each have a reported value; give each one's growth.
1. CSc1nsc(N)n1
2. CCOC(=O)/C(C)=C\c1ccc(OC)c(OC)c1
3. C=C(OC(C)=O)c1ccccc1

93.1% (inactive)
101% (inactive)
97% (inactive)

---

test system: 786-0 renal; assay: NCI-60 one-dose screen, 48 h; conditions: 10 µM unless noted
About 83,000 compounds went through this panel and 20% of them were active in at least one assay; those are over-represented in the sample as a whole. The source made the active and inactive calls. The calls were made as follows: active = growth percent below 10; inactive = the rest.
// classify into T for active, F for inactive

> print(dat)
                                   compound  category
1           C1CCc2onc(-c3noc4c3CCCCC4)c2CC1         F
2  CC(O)C(F)(F)C(F)(F)C(F)(F)F (stereo unspecified)         F
3              COc1cccc(N=CNc2cccc(OC)c2)c1         F
4                 c1ccc(-c2ccc3ccccc3c2)cc1         F
5  CC(C)(C)[Si](C)(C)OCC1OC(n2cnc3c(N)ncnc32)CC1OS(C)(=O)=O (stereo unspecified)         F

Dear colleague, could you share the recorded outcome for "CCOP(=O)(OCC)/C(=C\N1C(=O)CC(=O)NC1=S)C(=O)OC" when you have a moment?
F

Same read-out for "COc1cc(CC#N)c([N+](=O)[O-])cc1OC" ?
F

Same read-out for "COc1cc(C(=O)N2CCN(c3ccccc3)CC2)c2ccccc2n1" ?
F

Same read-out for "NC(=S)N/N=C/c1ccc(Cl)cc1" ?
F
